Assign pIC50 to each entry below.
test.details: Cytotoxicity against human HCT116/VM46 cells assessed as reduction in cell viability after 72 hrs by phosphatase assay
Assay type: cell-based
measurement.setup: HCT-116/VM46, 72 h
One number for each entry, as −log10 of the molar value.

Below: 7 compounds and their reported pIC50.
CC[C@]1(NC(=O)c2ccc3ccccc3c2)C[C@H]2CN(CCc3c([nH]c4ccccc34)[C@@](C(=O)OC)(c3cc4c(cc3OC)N(C)[C@H]3[C@@](O)(C(=O)OC)[C@H](OC(C)=O)[C@]5(CC)C=CCN6CC[C@]43[C@@H]65)C2)C1 :: 8.19
CC[C@]1(NC(=O)c2ccc(SC)cc2)C[C@H]2CN(CCc3c([nH]c4ccccc34)[C@@](C(=O)OC)(c3cc4c(cc3OC)N(C)[C@H]3[C@@](O)(C(=O)OC)[C@H](OC(C)=O)[C@]5(CC)C=CCN6CC[C@]43[C@@H]65)C2)C1 :: 8.17
CC[C@]1(NC(=O)c2ccc3cc4ccccc4cc3c2)C[C@H]2CN(CCc3c([nH]c4ccccc34)[C@@](C(=O)OC)(c3cc4c(cc3OC)N(C)[C@H]3[C@@](O)(C(=O)OC)[C@H](OC(C)=O)[C@]5(CC)C=CCN6CC[C@]43[C@@H]65)C2)C1 :: 6.82
CC[C@]1(NC(=O)c2cc3ccccc3s2)C[C@H]2CN(CCc3c([nH]c4ccccc34)[C@@](C(=O)OC)(c3cc4c(cc3OC)N(C)[C@H]3[C@@](O)(C(=O)OC)[C@H](OC(C)=O)[C@]5(CC)C=CCN6CC[C@]43[C@@H]65)C2)C1 :: 8.04
CC[C@]1(NC(=O)c2ccc(C)c(NC(C)=O)c2)C[C@H]2CN(CCc3c([nH]c4ccccc34)[C@@](C(=O)OC)(c3cc4c(cc3OC)N(C)[C@H]3[C@@](O)(C(=O)OC)[C@H](OC(C)=O)[C@]5(CC)C=CCN6CC[C@]43[C@@H]65)C2)C1 :: 6.48
CC[C@]1(NC(=O)c2ccc(C)c(NC(=O)OC(C)(C)C)c2)C[C@H]2CN(CCc3c([nH]c4ccccc34)[C@@](C(=O)OC)(c3cc4c(cc3OC)N(C)[C@H]3[C@@](O)(C(=O)OC)[C@H](OC(C)=O)[C@]5(CC)C=CCN6CC[C@]43[C@@H]65)C2)C1 :: 7.05
CC[C@]1(NC(=O)c2nc3ccccc3s2)C[C@H]2CN(CCc3c([nH]c4ccccc34)[C@@](C(=O)OC)(c3cc4c(cc3OC)N(C)[C@H]3[C@@](O)(C(=O)OC)[C@H](OC(C)=O)[C@]5(CC)C=CCN6CC[C@]43[C@@H]65)C2)C1 :: 6.33

Entry CC[C@]1(NC(=O)c2ccc(OC)c(OC(F)(F)F)c2)C[C@H]2CN(CCc3c([nH]c4ccccc34)[C@@](C(=O)OC)(c3cc4c(cc3OC)N(C)[C@H]3[C@@](O)(C(=O)OC)[C@H](OC(C)=O)[C@]5(CC)C=CCN6CC[C@]43[C@@H]65)C2)C1 ; pIC50 = 7.77
